Study Target: T1, Hera_K51Q (Thermus thermophilus, UniProt O07897 1-510, K51Q)
T1 sequence: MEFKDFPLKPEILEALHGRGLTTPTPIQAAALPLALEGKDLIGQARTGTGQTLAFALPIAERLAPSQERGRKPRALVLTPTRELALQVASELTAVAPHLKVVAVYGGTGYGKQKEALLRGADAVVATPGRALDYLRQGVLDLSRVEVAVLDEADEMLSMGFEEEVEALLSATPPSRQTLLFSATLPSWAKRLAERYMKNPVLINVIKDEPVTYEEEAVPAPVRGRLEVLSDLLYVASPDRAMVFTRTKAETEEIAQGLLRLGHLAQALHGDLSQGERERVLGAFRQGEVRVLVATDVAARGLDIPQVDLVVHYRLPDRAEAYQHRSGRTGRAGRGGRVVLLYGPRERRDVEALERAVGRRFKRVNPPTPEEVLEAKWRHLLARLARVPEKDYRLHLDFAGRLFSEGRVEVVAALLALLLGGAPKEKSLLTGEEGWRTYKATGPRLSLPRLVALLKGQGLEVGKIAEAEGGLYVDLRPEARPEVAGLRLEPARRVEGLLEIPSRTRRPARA
Method: stopped-flow fluorescence
Observation Type: pKd
Here pKd is given on a logarithmic scale as minus log10 of the concentration in mol/L.

Problem: Request the reported pKd associated with GCAGGUCCCAAGGGUUGGGCUGUUCGCCCAUU (structured_RNA) [fl-32mer]
Result: 5.82
